Where do the numbers come from? From patent US20250129086A1.

# IC50 values compiled below
- Tested on: PC-9 (EGFR exon 19 deletion)
- assay: Cell antiproliferative assay (CTG, 72 h), PC-9
- Type: cell-based, human
- conditionSet: Table 2, PC-9 cells

Below, each entry is followed by its recorded IC50 result.
INSERT INTO results (molecule, observedresult) VALUES
  ('COc1cc(N2CCC(N(C)C(=O)CN3CCC(c4ccc(NC5CCC(=O)NC5=O)cc4)CC3)CC2)ccc1Nc1ncc(C(F)(F)F)c(Nc2ccccc2C(C)=O)n1 (stereo not drawn)', '100 to 1000 nM'),
  ('COc1cc(C2CCN(C(=O)CN3CCC(c4ccc(NC5CCC(=O)NC5=O)cc4)CC3)CC2)ccc1Nc1ncc(Cl)c(Nc2ccccc2C(C)=O)n1 (stereo not drawn)', '100 to 1000 nM');

**Query** Request - read-out IC50 | tested on PC-9 (EGFR exon 19 deletion) | molecule COc1cc(N2CCN(C(=O)CN3CCC(c4ccc(NC5CCC(=O)NC5=O)cc4)CC3)CC2)ccc1Nc1ncc(C(F)(F)F)c(Nc2ccc(F)cc2)n1 (stereo not drawn)
**Result** ≥ 1000 nM

----------
# DC50 values compiled below
- subjectOfTest: EGFR (Homo sapiens, UniProt P00533, DEL746-750)
- Construct: host or cells: HCC827
- Sequence (P00533 with tags, fused parts or gaps DEL746-750): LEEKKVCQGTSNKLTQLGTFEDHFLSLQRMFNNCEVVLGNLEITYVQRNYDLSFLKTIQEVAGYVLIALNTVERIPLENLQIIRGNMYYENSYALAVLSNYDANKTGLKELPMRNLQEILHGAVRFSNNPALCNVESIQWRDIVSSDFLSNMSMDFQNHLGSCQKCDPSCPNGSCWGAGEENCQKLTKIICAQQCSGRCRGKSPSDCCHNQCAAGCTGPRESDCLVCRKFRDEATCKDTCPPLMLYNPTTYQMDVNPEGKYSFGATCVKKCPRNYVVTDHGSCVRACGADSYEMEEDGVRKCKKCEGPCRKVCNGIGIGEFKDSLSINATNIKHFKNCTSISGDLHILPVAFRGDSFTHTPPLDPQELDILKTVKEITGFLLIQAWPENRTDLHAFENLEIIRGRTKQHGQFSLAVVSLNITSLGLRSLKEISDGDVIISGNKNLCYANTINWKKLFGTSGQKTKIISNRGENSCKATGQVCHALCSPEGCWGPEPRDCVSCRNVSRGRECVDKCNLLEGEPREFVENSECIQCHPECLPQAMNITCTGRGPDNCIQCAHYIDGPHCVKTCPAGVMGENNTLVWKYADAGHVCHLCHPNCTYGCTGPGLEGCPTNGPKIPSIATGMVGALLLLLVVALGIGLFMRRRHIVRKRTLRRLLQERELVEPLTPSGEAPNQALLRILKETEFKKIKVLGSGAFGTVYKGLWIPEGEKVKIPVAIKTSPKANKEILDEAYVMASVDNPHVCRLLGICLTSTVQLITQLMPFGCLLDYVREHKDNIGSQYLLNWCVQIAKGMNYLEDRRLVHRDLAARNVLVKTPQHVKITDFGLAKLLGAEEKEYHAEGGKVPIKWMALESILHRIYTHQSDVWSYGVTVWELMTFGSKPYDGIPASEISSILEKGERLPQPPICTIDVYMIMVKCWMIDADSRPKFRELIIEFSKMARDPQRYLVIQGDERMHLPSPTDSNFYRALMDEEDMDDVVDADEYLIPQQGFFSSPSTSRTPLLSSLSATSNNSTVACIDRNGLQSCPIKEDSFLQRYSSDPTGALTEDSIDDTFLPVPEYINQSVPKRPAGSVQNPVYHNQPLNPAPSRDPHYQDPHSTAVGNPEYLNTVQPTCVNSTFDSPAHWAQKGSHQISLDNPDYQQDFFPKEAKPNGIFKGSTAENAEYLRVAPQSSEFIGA
- assay: EGFR PROTAC In Cell Western assay in HCC827
- Format: cell-based
- conditionSet: Table 4; HCC827, EGFR degradation, 16 hours of incubation

Below, each entry is followed by its recorded DC50 result.
INSERT INTO assay_data (compound, measuredquantity, observedresult) VALUES
  ('CC(=O)c1ccccc1Nc1nc(Nc2ccc(N3CCN(C(=O)CN4CCC(c5ccc(NC6CCC(=O)NC6=O)cc5)CC4)CC3)cc2Cl)ncc1Cl (stereo not drawn)', 'DC50', '0.01 to 0.1 µM'),
  ('COc1cc(N2CCC(N(C)C(=O)CN3CCC(c4ccc(NC5CCC(=O)NC5=O)cc4)CC3)CC2)ccc1Nc1ncc(C(F)(F)F)c(Nc2ccccc2C(C)=O)n1 (stereo not drawn) [Compound T-224]', 'DC50', '0.01 to 0.1 µM');

**Query** DC50 for COc1cc(N2CCN(C(=O)CN3CCC(c4ccc(NC5CCC(=O)NC5=O)cc4)CC3)CC2)ccc1Nc1ncc(Cl)c(Nc2ccccc2P(C)(C)=O)n1 (stereo not drawn) ?
**Result** ≤ 0.01 µM

----------
- Tested on: HCC827 (exon 19 deletion mutation)
- assay: Cell antiproliferative assay (CTG, 72 h), HCC827
- Type: cell-based, human
- conditionSet: Homo sapiens, HCC827, 72 h, Table 2, HCC827 cells
measuredQuantity: IC50

Below, each entry is followed by its recorded IC50 result.
INSERT INTO results (compound, observedresult) VALUES
  ('COc1cc(N2CCN(C(=O)CN3CCC(c4ccc(NC5CCC(=O)NC5=O)cc4)CC3)CC2)ccc1Nc1ncc(Cl)c(Nc2ccccc2NC(C)=O)n1 (stereo not drawn)', '100 to 1000 nM'),
  ('COc1cc(N2CCN(C(=O)CN3CCN(c4ccc(NC5CCC(=O)NC5=O)cc4)CC3)CC2)ccc1Nc1ncc(Cl)c(Nc2ccccc2C(C)=O)n1 (stereo not drawn)', '≥ 1000 nM'),
  ('COc1cc(N2CCN(C(=O)CN3CCC(c4ccc(NC5CCC(=O)NC5=O)cc4F)CC3)CC2)ccc1Nc1ncc(Cl)c(Nc2ccccc2)n1 (stereo not drawn)', '≥ 1000 nM'),
  ('CP(C)(=O)c1ccccc1Nc1nc(Nc2ccc(N3CCN(C(=O)CN4CCC(c5ccc(NC6CCC(=O)NC6=O)cc5)CC4)CC3)cc2Cl)ncc1Cl (stereo not drawn)', '100 to 1000 nM'),
  ('COc1cc(N2CCN(C(=O)CN3CCC(c4ccc(NC5CCC(=O)NC5=O)cc4)CC3)CC2)ccc1Nc1ncc(Cl)c(Nc2cccc(C#N)c2)n1 (stereo not drawn)', '≥ 1000 nM');

**Query** IC50 for CNC(=O)c1ccccc1Nc1nc(Nc2cc(C#N)c(N3CCN(C(=O)CN4CCC(c5ccc(NC6CCC(=O)NC6=O)cc5)CC4)CC3)cc2OC)ncc1Cl (stereo not drawn) ?
**Result** 10 to 100 nM

----------
# IC50 values compiled below
- System: H1975 (EGFR L858R/T790M double mutation)
- assay: Cell antiproliferative assay (CTG, 72 h), H1975
- Type: cell-based, human
- conditionSet: Homo sapiens, NCI-H1975, 72 h, Table 2, H1975 cells

Below, each entry is followed by its recorded IC50 result.
INSERT INTO measurements (compound, measuredquantity, observedresult) VALUES
  ('COc1cc(N2CCN(C(=O)CN3CCC(c4ccc(NC5CCC(=O)NC5=O)cc4)CC3)CC2)ccc1Nc1ncc(Cl)c(Nc2ccccc2)n1 (stereo not drawn)', 'IC50', '10 to 100 nM'),
  ('C=CC(=O)Nc1cc(Nc2nccc(-c3cn(C)c4ccccc34)n2)c(OC)cc1N(C)CCN(C)CC(=O)N1CCC(c2ccc(NC3CCC(=O)NC3=O)cc2)CC1 (stereo not drawn)', 'IC50', '≥ 1000 nM'),
  ('COc1cc(N2CCN(CC3CCN(c4ccc5c(c4)C(=O)N(C4CCC(=O)NC4=O)C5=O)CC3)CC2)ccc1Nc1ncc(Cl)c(Nc2ccccc2C(C)=O)n1 (stereo not drawn)', 'IC50', '100 to 1000 nM'),
  ('COc1cc(N2CCN(C(=O)CN3CCC(c4ccc(NC5CCC(=O)NC5=O)cc4)CC3)CC2)ccc1Nc1ncc(Cl)c(Nc2ccccc2NS(C)(=O)=O)n1 (stereo not drawn)', 'IC50', '10 to 100 nM'),
  ('COc1cc(N2CCN(C(=O)CN3CCC(c4ccc(CN5CCC(=O)NC5=O)cc4)CC3)CC2)ccc1Nc1ncc(Cl)c(Nc2ccccc2C(C)=O)n1', 'IC50', '100 to 1000 nM');

Next up:
**Query** IC50 for COc1cc(C2CCN(C(=O)CN3CCC(c4ccc(NC5CCC(=O)NC5=O)cc4)CC3)CC2)ccc1Nc1ncc(Cl)c(Nc2ccccc2C(C)=O)n1 (stereo not drawn) ?
**Result** 100 to 1000 nM

----------
- Test system: H1975 (EGFR L858R/T790M double mutation)
- assay: Cell antiproliferative assay (CTG, 72 h), H1975
- Assay type: cell-based, human
- conditionSet: Table 2, H1975 cells
# IC50 values compiled below

Below, each entry is followed by its recorded IC50 result.
INSERT INTO assay_data (molecule, measuredquantity, observedresult) VALUES
  ('COc1cc(N2CCN(C(=O)CN3CCC(c4ccc(NC5CCC(=O)NC5=O)cc4)CC3)CC2)ccc1Nc1ncc(C(F)(F)F)c(Nc2ccc(F)cc2)n1 (stereo not shown) [Compound T-52]', 'IC50', '10 to 100 nM'),
  ('COc1cc(C2CCN(C(=O)CN3CCC(c4ccc(NC5CCC(=O)NC5=O)cc4)CC3)CC2)ccc1Nc1ncc(Cl)c(Nc2ccccc2C(C)=O)n1 (stereo not shown) [Compound T-69]', 'IC50', '100 to 1000 nM'),
  ('CCc1cc(Nc2ncc(Cl)c(Nc3ccccc3C(=O)NC)n2)c(OC)cc1N1CCN(C(=O)CN2CCC(c3ccc(NC4CCC(=O)NC4=O)cc3)CC2)CC1 (stereo not shown) [Compound T-375]', 'IC50', '10 to 100 nM');

Next up:
**Query** IC50 for COc1cc(N2CCC(N(C)C(=O)CN3CCC(c4ccc(NC5CCC(=O)NC5=O)cc4)CC3)CC2)ccc1Nc1ncc(C(F)(F)F)c(Nc2ccccc2C(C)=O)n1 (stereo not shown) [Compound T-224] ?
**Result** 10 to 100 nM

----------
- Tested on: HCC827 (exon 19 deletion mutation)
- assay: Cell antiproliferative assay (CTG, 72 h), HCC827
- Assay type: cell-based, human
- conditionSet: Table 2, HCC827 cells
# IC50 values compiled below

INSERT INTO results (compound, measuredquantity, observedresult) VALUES
  ('COc1cc(N2CCC(N(C)C(=O)CN3CCC(c4ccc(NC5CCC(=O)NC5=O)cc4)CC3)CC2)ccc1Nc1ncc(C(F)(F)F)c(Nc2ccccc2C(C)=O)n1 (stereo not shown) [Compound T-224]', 'IC50', '100 to 1000 nM'),
  ('COc1cc(N2CCN(C(=O)CN3CCC(c4ccc(NC5CCC(=O)NC5=O)cc4)CC3)CC2)ccc1Nc1ncc(C(F)(F)F)c(Nc2ccc(F)cc2)n1 (stereo not shown) [Compound T-51]', 'IC50', '≥ 1000 nM'),
  ('COc1cc(N2CCN(C(=O)CN3CCC(c4ccc(NC5CCC(=O)NC5=O)cc4)CC3)CC2)ccc1Nc1ncc(C(F)(F)F)c(Nc2ccc(F)cc2)n1 (stereo not shown) [Compound T-52]', 'IC50', '100 to 1000 nM');

**Query** Request - read-out IC50 | tested on HCC827 (exon 19 deletion mutation) | compound COc1cc(C2CCN(C(=O)CN3CCC(c4ccc(NC5CCC(=O)NC5=O)cc4)CC3)CC2)ccc1Nc1ncc(Cl)c(Nc2ccccc2C(C)=O)n1 (stereo not shown) [Compound T-69]
**Result** 100 to 1000 nM
